Target: hCA IX (Homo sapiens, UniProt Q16790)
observed-property: Ki (µM)

{"compound": "COc1ccc(C=C2SC(=O)N(CC(=O)c3cc4ccccc4oc3=O)C2=O)cc1 [10c]", "assay-target": "hCA IX (Homo sapiens, UniProt Q16790)", "value-units": "µM", "result-number": 5.8}
{"compound": "O=C(CN1C(=O)SC(=Cc2ccccc2Br)C1=O)c1cc2cc(Br)ccc2oc1=O [10n]", "assay-target": "hCA IX (Homo sapiens, UniProt Q16790)", "value-units": "µM", "result-number": 3.4}
{"compound": "Cc1ccc(C=C2SC(=O)N(CC(=O)c3cc4ccccc4oc3=O)C2=O)o1 [11b]", "assay-target": "hCA IX (Homo sapiens, UniProt Q16790)", "value-units": "µM", "result-number": 0.79}
{"compound": "Cc1ccc(C=C2SC(=O)N(CC(=O)c3cc4cc(Br)ccc4oc3=O)C2=O)o1 [11d]", "assay-target": "hCA IX (Homo sapiens, UniProt Q16790)", "value-units": "µM", "result-number": 0.91}
{"compound": "Cc1ccc(C=C2SC(=O)N(CC(=O)c3cc4cc(Br)ccc4oc3=O)C2=O)cc1 [10i]", "assay-target": "hCA IX (Homo sapiens, UniProt Q16790)", "value-units": "µM", "result-number": 6.2}
{"compound": "COc1ccc(OC)c(C=C2SC(=O)N(CC(=O)c3cc4ccccc4oc3=O)C2=O)c1 [10d]", "assay-target": "hCA IX (Homo sapiens, UniProt Q16790)", "value-units": "µM", "result-number": 8.4}

1. COc1ccc(C=C2SC(=O)N(CC(=O)c3cc4cc(Br)ccc4oc3=O)C2=O)cc1 [10j]
2. O=C(CN1C(=O)SC(=Cc2ccccc2Br)C1=O)c1cc2ccccc2oc1=O [10g]
Min Ki? 1 | 2 Write the label of whichever entry you select.
2
(2: 2.3 µM, 1: 8.9 µM)
